From: patent US10184116B2

Recorded Relative luminescence activity, 6h-f-CTZ, Int. values for a group of molecules are listed next.
# TEST_SUMMARY: Substrate specificity of WNanoKAZ mutants, crude enzyme solution (Example 11)
# Assay type: biochemical
# ASSAY_SETUP: substrate 6h-f-CTZ, Int.
Lab note: jot down the number only; don't add units.

These recorded examples may help you get a feel for the data.
WNanoKAZ: chimeric protein: positions 1-82 of native KAZ and 83-169 of nanoKAZ; SEQ ID NO: 6; I90V, P115E, Q124K, Y138I, N166R (protein, chimeric protein: positions 1-82 of native KAZ and 83-169 of nanoKAZ; I90V, P115E, Q124K, Y138I, N166R) FTLADFVGDWQQTAGYNQDQVLEQGGLSSLFQALGVSVTPIQKVVLSGENGLKADIHVIIPYEGLSGFQMGLIEMIFKVVYPVDDHHFKVILHYGTLVIDGVTPNMIDYFGRPYEGIAVFDGKKITVTGTLWNGNKIIDERLINPDGSLLFRVTINGVTGWRLCERILA: 34
WNanoKAZ-E115P: WNanoKAZ with substitution of proline for glutamic acid at position 115; SEQ ID NO: 10 (protein) FTLADFVGDWQQTAGYNQDQVLEQGGLSSLFQALGVSVTPIQKVVLSGENGLKADIHVIIPYEGLSGFQMGLIEMIFKVVYPVDDHHFKVILHYGTLVIDGVTPNMIDYFGRPYPGIAVFDGKKITVTGTLWNGNKIIDERLINPDGSLLFRVTINGVTGWRLCERILA: 11

input: Fill in Relative luminescence activity, 6h-f-CTZ, Int. for record WNanoKAZ-K124Q: single amino acid-substituted WNanoKAZ mutant K124Q; SEQ ID NO: 12 (protein) FTLADFVGDWQQTAGYNQDQVLEQGGLSSLFQALGVSVTPIQKVVLSGENGLKADIHVIIPYEGLSGFQMGLIEMIFKVVYPVDDHHFKVILHYGTLVIDGVTPNMIDYFGRPYEGIAVFDGKQITVTGTLWNGNKIIDERLINPDGSLLFRVTINGVTGWRLCERILA
output: 35
